This collection of values is drawn from patent US20260035367A1.

study-target: Recombinant human PKC-theta (His-tagged 362-706) (Homo sapiens, UniProt Q04759)
Construct: Recombinant human PKC-theta (His-tagged 362-706); His
Sequence (Q04759 362-706): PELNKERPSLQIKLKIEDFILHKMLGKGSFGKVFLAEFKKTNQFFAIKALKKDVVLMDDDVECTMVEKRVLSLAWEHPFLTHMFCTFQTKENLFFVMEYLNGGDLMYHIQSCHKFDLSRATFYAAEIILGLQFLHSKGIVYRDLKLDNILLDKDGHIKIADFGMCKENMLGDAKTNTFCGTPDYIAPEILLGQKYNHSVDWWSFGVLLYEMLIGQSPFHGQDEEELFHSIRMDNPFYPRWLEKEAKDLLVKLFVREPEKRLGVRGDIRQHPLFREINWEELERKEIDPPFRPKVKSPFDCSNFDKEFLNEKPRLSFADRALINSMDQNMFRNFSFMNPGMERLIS
measurement-notes: PKC-theta inhibition assay (HTRF KinEASE kit)
Format: biochemical
cond: ATP 6.5 μM; STK substrate 525 nM; binned A to H; read-out: PKC-theta HTRF pIC50 (binned) (converted)
endpoint-name: IC50

Per the record, CC1(C)C(=O)Nc2nccc(-c3cccc(C4(CO)CCNC4)c3)c21 (centres unmarked) has IC50 of 3.16 to 10 nM

Per the record, CC[C@]1(O)C(=O)Nc2nccc(-c3cc(Cl)cc(N4CCN[C@@H](C)C4)n3)c21 (single isomer, unassigned) has IC50 of 3.16 to 10 nM

Per the record, CC[C@@H]1CNCCN1c1cc(C(F)(F)F)cc(-c2ccnc3c2[C@](C)(O)C(=O)N3)n1 (single isomer, unassigned) has IC50 of 0.316 to 1 nM

Per the record, C[C@@]1(O)C(=O)Nc2nccc(-c3cc(C(F)(F)F)cc(N4CC[C@H]5OCCN[C@@H]5C4)n3)c21 (single isomer, unassigned) has IC50 of 100 to 316 nM

Per the record, CC[C@H]1CN(c2ccc(Cl)c(-c3ccnc4c3[C@](C)(O)C(=O)N4)n2)CCN1 (single isomer, unassigned) has IC50 of 10 to 31.6 nM

Per the record, C[C@H]1CN(c2cc(C(F)(F)F)cc(-c3ccnc4c3C(C)(C)C(=O)N4)n2)CCN1 has IC50 of 3.16 to 10 nM

Per the record, C[C@@H]1NCCN(c2cc(C(F)(F)F)cc(-c3ccnc4c3[C@](C)(O)C(=O)N4)n2)[C@@H]1C has IC50 of 1 to 3.16 nM

Per the record, CC1(C)C(=O)Nc2nccc(-c3cccc(OC4CCNCC4)c3)c21 has IC50 of 100 to 316 nM

Per the record, CC[C@@]1(C)C(=O)Nc2nccc(-c3cc(C(F)(F)F)cc(N4CCN[C@@H](C)C4)n3)c21 (single isomer, unassigned) has IC50 of 3.16 to 10 nM

Per the record, CC1(C)C(=O)Nc2nccc(-c3cc(Cl)cc(N4CCNCC4)c3)c21 has IC50 of 31.6 to 100 nM

Per the record, CC1(C)CN(c2cc(C(F)(F)F)cc(-c3ccnc4c3[C@](C)(O)C(=O)N4)n2)CCN1 (single isomer, unassigned) has IC50 of 3.16 to 10 nM

Per the record, CC1(C)C(=O)Nc2nccc(-c3cc(C(F)(F)F)cc(N4CCNCC4)n3)c21 has IC50 of 3.16 to 10 nM

Per the record, CC1(C)C(=O)Nc2nccc(-c3cc(C(F)(F)F)cc(N4CC5CCC4CN5)n3)c21 (centres unmarked) has IC50 of 10 to 31.6 nM

Per the record, CCC1(C)C(=O)Nc2nccc(-c3cc(Cl)cc(N4CCNC[C@H]4C)n3)c21 (some centres unmarked) has IC50 of 1 to 3.16 nM
